# target-system: ATP-binding cassette transporter A1 (ABCA1) (mouse, UniProt P41233 1-2261)
# Sequence (P41233 whole entry): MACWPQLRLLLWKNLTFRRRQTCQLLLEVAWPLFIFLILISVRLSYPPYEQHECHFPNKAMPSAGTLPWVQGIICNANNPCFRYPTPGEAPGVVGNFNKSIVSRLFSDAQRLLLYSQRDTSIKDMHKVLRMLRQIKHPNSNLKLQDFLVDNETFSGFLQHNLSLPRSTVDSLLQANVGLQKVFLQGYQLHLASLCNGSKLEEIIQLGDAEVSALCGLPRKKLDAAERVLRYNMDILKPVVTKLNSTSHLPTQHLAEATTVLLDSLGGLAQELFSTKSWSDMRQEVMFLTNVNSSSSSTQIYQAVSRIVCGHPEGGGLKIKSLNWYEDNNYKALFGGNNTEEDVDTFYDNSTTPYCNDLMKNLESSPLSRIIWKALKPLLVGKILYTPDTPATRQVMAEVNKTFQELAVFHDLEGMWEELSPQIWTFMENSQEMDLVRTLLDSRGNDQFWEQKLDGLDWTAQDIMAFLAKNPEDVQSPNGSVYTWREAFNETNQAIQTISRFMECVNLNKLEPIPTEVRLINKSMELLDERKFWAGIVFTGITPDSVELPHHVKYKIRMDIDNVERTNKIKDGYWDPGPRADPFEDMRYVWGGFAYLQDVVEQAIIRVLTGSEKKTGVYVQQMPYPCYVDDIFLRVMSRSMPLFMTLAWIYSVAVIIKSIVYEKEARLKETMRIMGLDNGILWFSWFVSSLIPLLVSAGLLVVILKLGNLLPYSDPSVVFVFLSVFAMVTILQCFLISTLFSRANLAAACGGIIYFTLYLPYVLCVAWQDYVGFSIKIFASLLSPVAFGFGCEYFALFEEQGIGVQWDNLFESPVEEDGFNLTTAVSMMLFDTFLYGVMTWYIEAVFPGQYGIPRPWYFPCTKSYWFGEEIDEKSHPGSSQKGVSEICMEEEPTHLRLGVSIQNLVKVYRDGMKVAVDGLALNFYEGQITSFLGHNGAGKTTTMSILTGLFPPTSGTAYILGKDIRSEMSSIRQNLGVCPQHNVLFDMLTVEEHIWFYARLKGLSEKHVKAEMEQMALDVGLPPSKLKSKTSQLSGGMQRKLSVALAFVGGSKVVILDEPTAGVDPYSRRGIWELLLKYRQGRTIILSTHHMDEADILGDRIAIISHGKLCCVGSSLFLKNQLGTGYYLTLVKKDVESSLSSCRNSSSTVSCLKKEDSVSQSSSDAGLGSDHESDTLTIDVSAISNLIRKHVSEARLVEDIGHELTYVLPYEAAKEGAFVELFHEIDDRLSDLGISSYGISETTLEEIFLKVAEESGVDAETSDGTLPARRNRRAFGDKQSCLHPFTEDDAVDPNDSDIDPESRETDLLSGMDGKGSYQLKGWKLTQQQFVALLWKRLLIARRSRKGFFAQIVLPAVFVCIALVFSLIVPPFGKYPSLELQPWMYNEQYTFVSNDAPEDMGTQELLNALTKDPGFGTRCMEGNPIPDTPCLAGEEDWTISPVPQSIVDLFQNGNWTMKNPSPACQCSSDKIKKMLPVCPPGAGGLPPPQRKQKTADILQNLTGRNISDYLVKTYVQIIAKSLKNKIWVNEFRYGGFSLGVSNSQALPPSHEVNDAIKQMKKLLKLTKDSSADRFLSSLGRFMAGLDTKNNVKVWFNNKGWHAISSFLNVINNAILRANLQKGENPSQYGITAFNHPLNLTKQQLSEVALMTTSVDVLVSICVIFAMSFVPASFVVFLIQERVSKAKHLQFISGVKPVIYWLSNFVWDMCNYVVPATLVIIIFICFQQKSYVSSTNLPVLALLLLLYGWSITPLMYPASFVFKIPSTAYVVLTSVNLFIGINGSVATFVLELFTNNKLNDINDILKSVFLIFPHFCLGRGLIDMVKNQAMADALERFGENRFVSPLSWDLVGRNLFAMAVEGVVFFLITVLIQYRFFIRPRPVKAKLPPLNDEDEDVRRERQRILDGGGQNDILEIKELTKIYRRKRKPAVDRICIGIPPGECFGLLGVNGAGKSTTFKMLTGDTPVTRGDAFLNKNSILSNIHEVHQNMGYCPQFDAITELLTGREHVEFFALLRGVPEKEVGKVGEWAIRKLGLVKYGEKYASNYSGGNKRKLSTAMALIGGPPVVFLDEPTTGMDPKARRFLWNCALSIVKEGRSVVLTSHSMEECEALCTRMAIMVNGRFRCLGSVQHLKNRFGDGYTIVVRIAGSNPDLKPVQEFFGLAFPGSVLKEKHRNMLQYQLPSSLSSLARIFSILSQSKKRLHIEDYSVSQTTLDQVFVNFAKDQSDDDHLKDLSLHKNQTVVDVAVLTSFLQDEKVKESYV
# measurement-protocol: cell-based or functional assay
*1 amine or outer side, *2 acyl side, *3 side chain or, on linkers, in order; H or OH if unused. Bridges are numbered along the chain shown (N, C = ends). Where no end group is shown, it is not given here. [ ]: non-standard residue; d: D form. S6H = (2S)-2-aminooct-7-enoic acid, C=CCCCC[C@H](N[*:1])C(=O)[*:2]; Ala(E-styryl) = N[C@@H](C/C=C/c1ccccc1)C(=O)O; Gly(oct-7-en-1-yl) = C=CCCCCCC[C@H](N)C(=O)O; Ala(5-hexenyl) = C=CCCCCC[C@H](N)C(=O)O; Gla = N[C@@H](CC(C(=O)O)C(=O)O)C(=O)O; S8H3 = not defined here; R5H = not defined here; Aib = CC(C)(N)C(=O)O
Listed below: ABCA1-dependent cholesterol efflux EC50 values for each entry.
observable: ABCA1-dependent cholesterol efflux EC50 (nM)

binder	observable	readout-unit	number
Ac-PVLDE[Ala(5-hexenyl)]REKLNE[Ala(5-hexenyl)]LEALKQ[Ala(5-hexenyl)]LK [CONS[S7H^6,13,20]]	ABCA1-dependent cholesterol efflux EC50	nM	200
Ac-PVLDEFR[Gla]KLNE[Aib]LEALKQKLK (not fully specified (C-terminus)) [GLA8/AIB13]	ABCA1-dependent cholesterol efflux EC50	nM	44000
Ac-P[Ala(5-hexenyl)]LDE[Ala(5-hexenyl)]REKLNE[Ala(5-hexenyl)]LEALKQ[Ala(5-hexenyl)]LK [CONS[S7H^2,6,13,20]]	ABCA1-dependent cholesterol efflux EC50	nM	2000
Ac-PVLEE[Ala(5-hexenyl)]REKLQE[Ala(5-hexenyl)]LEALKQKLK (not fully specified (C-terminus)) [CONS[E^4, S7H^6,13, Q^11]]	ABCA1-dependent cholesterol efflux EC50	nM	700
Ac-P[Ala(5-hexenyl)]LDEFREKLNE[Ala(5-hexenyl)]LEALKQKLK [CONS[S7H^2,13]]	ABCA1-dependent cholesterol efflux EC50	nM	300
Ac-PVLDEFREKLNE[S8H3]LEALKQKLK (reading uncertain) [CONS[S8H3^13]]	ABCA1-dependent cholesterol efflux EC50	nM	300
Ac-PVLDEFR[Gla]KLNE[Ala(5-hexenyl)]LEALKQKLK (not fully specified (C-terminus)) [CONS[GLA^8, S7H^13]]	ABCA1-dependent cholesterol efflux EC50	nM	900
Ac-PVLEEFREKLQE[Gly(oct-7-en-1-yl)]LEALKQKLK (not fully specified (C-terminus)) [CONS[E^4, Q^11, S8H^13]]	ABCA1-dependent cholesterol efflux EC50	nM	300
Ac-PVLDE[Gly(oct-7-en-1-yl)]REKLNE[Gly(oct-7-en-1-yl)]LEALKQKLK [CONS[S8H^6,13]]	ABCA1-dependent cholesterol efflux EC50	nM	400
Ac-PVLDEFREKLNEAL[Gla]ALKQKLK (not fully specified (C-terminus)) [GLA15/ALA13]	ABCA1-dependent cholesterol efflux EC50	nM	234000
Ac-PVLDEFREKLNE[Ala(5-hexenyl)]LEALKQ[Ala(5-hexenyl)]LK [CONS[S7H^13,20]]	ABCA1-dependent cholesterol efflux EC50	nM	600
Ac-PVLDEFRE[R5H]LNE[R5H]LEALKQKLK (staple 9-13; reading uncertain) [R5H [K9-E13]R5H CLOSED RING]	ABCA1-dependent cholesterol efflux EC50	nM	10000
PXLDEXREKLNEXLXALKQKLK (not fully specified; N-terminal acetyl (Ac-Pro); S7H at 2, 6 and 13; Gla at 15) [CONS[GLA^15, S7H^2,6,13]]	ABCA1-dependent cholesterol efflux EC50	nM	600
Ac-P[Ala(5-hexenyl)]LDEFREKLNE[Ala(5-hexenyl)]LEALKQ[Ala(5-hexenyl)]LK [CONS[S7H^2,13,20]]	ABCA1-dependent cholesterol efflux EC50	nM	3200
Ac-PVLDE[Ala(E-styryl)]REKLNE[Ala(5-hexenyl)]LEALKQKLK [CON[(S)STYRA^6, S7H^13]]	ABCA1-dependent cholesterol efflux EC50	nM	200
Ac-P[Ala(5-hexenyl)]LDE[Ala(5-hexenyl)]REKLNE[Ala(5-hexenyl)]L[Gla]ALKQ[Ala(5-hexenyl)]LK [CONS[S7H^2,6,13,20, GLA^15]]	ABCA1-dependent cholesterol efflux EC50	nM	2400
Ac-PVLDEFREKLNE[S6H]LEALKQKLK (not fully specified (C-terminus)) [CONS[S6H^13]]	ABCA1-dependent cholesterol efflux EC50	nM	1400
Ac-[dP][dV][dL][dD][dE][Ala(5-hexenyl)][dR][dE][dK][dL][dN][dE][Ala(5-hexenyl)][dL][dE][dA][dL][dK][dQ][dK][dL][dK] (not fully specified (C-terminus)) [D-CONS[S7H^6,13]]	ABCA1-dependent cholesterol efflux EC50	nM	3000
Ac-PVLDEFREKLNE[Ala(E-styryl)]LEALKQKLK (not fully specified (C-terminus)) [CONS[(S)STYRA^13]]	ABCA1-dependent cholesterol efflux EC50	nM	1000
Ac-PVLDEFREKLNE[Ala(5-hexenyl)]L[Gla]ALKQKLK [CONS[S7H^13, GLA^15]]	ABCA1-dependent cholesterol efflux EC50	nM	700
